experiment: Antiviral activity against Influenza A virus A/Puerto Rico/8/34 expressing wild type M2 proton channel infected in MDCK cells assessed as inhibition of viral replication measured after 10 hrs by miniplaque assay; assay type: functional, cell-based, Influenza A virus (A/Puerto Rico/8/1934(H1N1))
readout_name: pEC50
In simple prose, pEC50 is minus the logarithm base ten of a concentration in moles per litre.

Requested read-out: pEC50. Entry: NC12CC3CC(CC(C3)C1)C2 [AMANTADINE]
7.40

Requested read-out: pEC50. Entry: "CC1(C)N=C(N)S[C@]12CC[C@@H](C)CC2"
7.70

====

assay: Inhibition of Influenza A virus A/udorn/72(H3N2) wild type M2 proton channel expressed in yeast assessed as growth restoration measured after 44 hrs by turbidometric assay; design: species or system Influenza A virus (A/udorn/1972(H3N2))
pEC50: −log10 of the molar value.
Param threshold (5) applies to pEC50; output Fulfilled when value >= threshold, Not fulfilled when value < threshold.

Identify whether the reported pEC50 of the following molecule is 5 or greater: "CN(C)CCNC1=NC(C)(C)[C@]2(CC[C@H](C)CC2)S1"
Not fulfilled

Identify whether the reported pEC50 of the following molecule is 5 or greater: "Cc1cnc(CN2CCN(CCNC3=NC(C)(C)[C@]4(CC[C@H](C)CC4)S3)CC2)cn1"
Not fulfilled

Identify whether the reported pEC50 of the following molecule is 5 or greater: "CC1(C)N=C(NCCN2CCN(CCO)CC2)S[C@]12CC[C@@H](C)CC2"
Not fulfilled

Identify whether the reported pEC50 of the following molecule is 5 or greater: "CC1(C)N=C(NCCN2CCOCC2)S[C@]12CC[C@@H](C)CC2"
Not fulfilled

Identify whether the reported pEC50 of the following molecule is 5 or greater: "CC1(C)N=C(NCCc2ccccn2)S[C@]12CC[C@@H](C)CC2"
Fulfilled

Identify whether the reported pEC50 of the following molecule is 5 or greater: "CC1(C)N=C(NCCn2ccnc2)S[C@]12CC[C@@H](C)CC2"
Not fulfilled

Identify whether the reported pEC50 of the following molecule is 5 or greater: "CC(C)N1CCN(CCNC2=NC(C)(C)[C@]3(CC[C@H](C)CC3)S2)CC1"
Not fulfilled

Identify whether the reported pEC50 of the following molecule is 5 or greater: "CC1(C)N=C(NCCN2CCN(Cc3ccccc3)CC2)S[C@]12CC[C@@H](C)CC2"
Fulfilled

Identify whether the reported pEC50 of the following molecule is 5 or greater: "CC1(C)N=C(NCCc2ccncc2)S[C@]12CC[C@@H](C)CC2"
Not fulfilled

Identify whether the reported pEC50 of the following molecule is 5 or greater: "CN1CCN(CCNC2=NC(C)(C)[C@]3(CC[C@H](C)CC3)S2)CC1"
Fulfilled

Identify whether the reported pEC50 of the following molecule is 5 or greater: NC12CC3CC(CC(C3)C1)C2 [AMANTADINE]
Fulfilled

Identify whether the reported pEC50 of the following molecule is 5 or greater: "CC1(C)N=C(NCCN2CCNCC2)S[C@]12CC[C@@H](C)CC2"
Fulfilled

Identify whether the reported pEC50 of the following molecule is 5 or greater: "CN1CCN(C2=NC(C)(C)[C@]3(CC[C@H](C)CC3)S2)CC1"
Not fulfilled

Identify whether the reported pEC50 of the following molecule is 5 or greater: "CN(C)CCN1CCN(CCNC2=NC(C)(C)[C@]3(CC[C@H](C)CC3)S2)CC1"
Not fulfilled

Identify whether the reported pEC50 of the following molecule is 5 or greater: "CC1(C)N=C(NCCN2CCCCC2)S[C@]12CC[C@@H](C)CC2"
Not fulfilled

Identify whether the reported pEC50 of the following molecule is 5 or greater: "CC1(C)N=C(NCCc2cccnc2)S[C@]12CC[C@@H](C)CC2"
Fulfilled

Identify whether the reported pEC50 of the following molecule is 5 or greater: "CC1(C)N=C(N2CCNCC2)S[C@]12CC[C@@H](C)CC2"
Not fulfilled

Identify whether the reported pEC50 of the following molecule is 5 or greater: "COc1ccc(CNC2=NC(C)(C)[C@]3(CC[C@H](C)CC3)S2)c(OC)c1"
Not fulfilled

Identify whether the reported pEC50 of the following molecule is 5 or greater: "CCCCN1CCN(CCNC2=NC(C)(C)[C@]3(CC[C@H](C)CC3)S2)CC1"
Fulfilled

Identify whether the reported pEC50 of the following molecule is 5 or greater: "CC1(C)N=C(N)S[C@]12CC[C@@H](C)CC2"
Fulfilled

Identify whether the reported pEC50 of the following molecule is 5 or greater: "CC(=O)N1CCN(CCNC2=NC(C)(C)[C@]3(CC[C@H](C)CC3)S2)CC1"
Not fulfilled

Identify whether the reported pEC50 of the following molecule is 5 or greater: "CCOCCN1CCN(CCNC2=NC(C)(C)[C@]3(CC[C@H](C)CC3)S2)CC1"
Fulfilled

Identify whether the reported pEC50 of the following molecule is 5 or greater: "CC1(C)N=C(NCc2ccncc2)S[C@]12CC[C@@H](C)CC2"
Fulfilled

Identify whether the reported pEC50 of the following molecule is 5 or greater: "CC1(C)N=C(N2CCOCC2)S[C@]12CC[C@@H](C)CC2"
Fulfilled

Identify whether the reported pEC50 of the following molecule is 5 or greater: "CC1(C)N=C(NCC2CCNCC2)S[C@]12CC[C@@H](C)CC2"
Not fulfilled

Identify whether the reported pEC50 of the following molecule is 5 or greater: "CC1(C)N=C(NCc2cccnc2)S[C@]12CC[C@@H](C)CC2"
Fulfilled

Identify whether the reported pEC50 of the following molecule is 5 or greater: "CC1(C)N=C(NCc2cccc(O)c2)S[C@]12CC[C@@H](C)CC2"
Not fulfilled

Identify whether the reported pEC50 of the following molecule is 5 or greater: "CC1(C)N=C(NCCN2CCN(S(=O)(=O)c3ccccc3)CC2)S[C@]12CC[C@@H](C)CC2"
Not fulfilled

Identify whether the reported pEC50 of the following molecule is 5 or greater: "CC1(C)N=C(NCCN2CCN(CC3CCCCC3)CC2)S[C@]12CC[C@@H](C)CC2"
Not fulfilled

Identify whether the reported pEC50 of the following molecule is 5 or greater: "CCN1CCN(CCNC2=NC(C)(C)[C@]3(CC[C@H](C)CC3)S2)CC1"
Not fulfilled
